Values from the supplement of paper PMC13386468

- Target Or System: UniProt Q8ILW8
- Protocol Text: IC50 for competition of protein binding to Kinobeads
- Condition Summary: assay detail: Kinobeads competition in P. falciparum blood-stage lysate
Readout: IC50

- O=c1[nH]c2ccc(Cl)cc2c(NC2CN3CCC2CC3)c1-c1nc2ccccc2[nH]1 (stereo unspecified): > 20 µM

----------
- Target Or System: UniProt Q8I5S6
- Protocol Text: IC50 for competition of protein binding to Kinobeads
- Condition Summary: assay detail: Kinobeads competition in P. falciparum blood-stage lysate
Readout: IC50

* O=c1[nH]c2ccc(Cl)cc2c(NC2CN3CCC2CC3)c1-c1nc2ccccc2[nH]1 (stereo unspecified) | > 20 µM

----------
- Target Or System: UniProt Q8II92
- Protocol Text: IC50 for competition of protein binding to Kinobeads
- Condition Summary: assay detail: Kinobeads competition in P. falciparum blood-stage lysate
pIC50: −log10 of the molar value.
Readout: pIC50

• O=c1[nH]c2ccc(Cl)cc2c(NC2CN3CCC2CC3)c1-c1nc2ccccc2[nH]1 (stereo unspecified) = < 4.70

----------
- Target Or System: UniProt Q8II61
- Protocol Text: IC50 for competition of protein binding to Kinobeads
- Condition Summary: assay detail: Kinobeads competition in P. falciparum blood-stage lysate
Readout: IC50

- O=c1[nH]c2ccc(Cl)cc2c(NC2CN3CCC2CC3)c1-c1nc2ccccc2[nH]1 (stereo unspecified): > 20 µM

----------
- Target Or System: UniProt Q9U0K8
- Protocol Text: apparent dissociation constant (Kd app) from Kinobeads competition
- Condition Summary: assay detail: Kinobeads competition in P. falciparum blood-stage lysate
Readout: Kd

- O=c1[nH]c2ccc(Cl)cc2c(NC2CN3CCC2CC3)c1-c1nc2ccccc2[nH]1 (stereo unspecified): 4.29 µM

----------
- Target Or System: UniProt Q8IE99
- Protocol Text: IC50 for competition of protein binding to Kinobeads
- Condition Summary: assay detail: Kinobeads competition in P. falciparum blood-stage lysate
Readout: IC50

• O=c1[nH]c2ccc(Cl)cc2c(NC2CN3CCC2CC3)c1-c1nc2ccccc2[nH]1 (stereo unspecified) [CHIR-124] = > 20 µM

----------
- Target Or System: UniProt Q8I353
- Protocol Text: IC50 for competition of protein binding to Kinobeads
- Condition Summary: assay detail: Kinobeads competition in P. falciparum blood-stage lysate
pIC50: −log10 of the molar value.
Readout: pIC50

• O=c1[nH]c2ccc(Cl)cc2c(NC2CN3CCC2CC3)c1-c1nc2ccccc2[nH]1 (stereo unspecified) = < 4.70

----------
- Target Or System: UniProt Q8IKR1
- Protocol Text: IC50 for competition of protein binding to Kinobeads
- Condition Summary: assay detail: Kinobeads competition in P. falciparum blood-stage lysate
Readout: IC50

• O=c1[nH]c2ccc(Cl)cc2c(NC2CN3CCC2CC3)c1-c1nc2ccccc2[nH]1 (stereo unspecified) [CHIR-124] = > 20 µM

----------
- Target Or System: UniProt Q8IIL7
- Protocol Text: IC50 for competition of protein binding to Kinobeads
- Condition Summary: assay detail: Kinobeads competition in P. falciparum blood-stage lysate
Readout: IC50

- O=c1[nH]c2ccc(Cl)cc2c(NC2CN3CCC2CC3)c1-c1nc2ccccc2[nH]1 (stereo unspecified) [CHIR-124]: > 20 µM

----------
- Target Or System: UniProt Q8I479
- Protocol Text: IC50 for competition of protein binding to Kinobeads
- Condition Summary: assay detail: Kinobeads competition in P. falciparum blood-stage lysate
Readout: IC50

- O=c1[nH]c2ccc(Cl)cc2c(NC2CN3CCC2CC3)c1-c1nc2ccccc2[nH]1 (stereo unspecified) [CHIR-124]: > 20 µM

----------
- Target Or System: UniProt O77328
- Protocol Text: IC50 for competition of protein binding to Kinobeads
- Condition Summary: assay detail: Kinobeads competition in P. falciparum blood-stage lysate
Readout: IC50

- O=c1[nH]c2ccc(Cl)cc2c(NC2CN3CCC2CC3)c1-c1nc2ccccc2[nH]1 (stereo unspecified): > 20 µM

----------
- Target Or System: UniProt Q8ILZ3
- Protocol Text: IC50 for competition of protein binding to Kinobeads
- Condition Summary: assay detail: Kinobeads competition in P. falciparum blood-stage lysate
Readout: IC50

- O=c1[nH]c2ccc(Cl)cc2c(NC2CN3CCC2CC3)c1-c1nc2ccccc2[nH]1 (stereo unspecified): > 20 µM

----------
- Target Or System: UniProt Q8IJW4
- Protocol Text: IC50 for competition of protein binding to Kinobeads
- Condition Summary: assay detail: Kinobeads competition in P. falciparum blood-stage lysate
pIC50: −log10 of the molar value.
Readout: pIC50

- O=c1[nH]c2ccc(Cl)cc2c(NC2CN3CCC2CC3)c1-c1nc2ccccc2[nH]1 (stereo unspecified): < 4.70

----------
- Target Or System: UniProt Q8IIL5
- Protocol Text: IC50 for competition of protein binding to Kinobeads
- Condition Summary: assay detail: Kinobeads competition in P. falciparum blood-stage lysate
pIC50: −log10 of the molar value.
Readout: pIC50

* O=c1[nH]c2ccc(Cl)cc2c(NC2CN3CCC2CC3)c1-c1nc2ccccc2[nH]1 (stereo unspecified) | < 4.70

----------
- Target Or System: UniProt O77381
- Protocol Text: IC50 for competition of protein binding to Kinobeads
- Condition Summary: assay detail: Kinobeads competition in P. falciparum blood-stage lysate
Readout: IC50

- O=c1[nH]c2ccc(Cl)cc2c(NC2CN3CCC2CC3)c1-c1nc2ccccc2[nH]1 (stereo unspecified): > 20 µM

----------
- Target Or System: UniProt Q8IEQ1
- Protocol Text: IC50 for competition of protein binding to Kinobeads
- Condition Summary: assay detail: Kinobeads competition in P. falciparum blood-stage lysate
pIC50: −log10 of the molar value.
Readout: pIC50

- O=c1[nH]c2ccc(Cl)cc2c(NC2CN3CCC2CC3)c1-c1nc2ccccc2[nH]1 (stereo unspecified): < 4.70

----------
- Target Or System: UniProt Q8IHN4
- Protocol Text: IC50 for competition of protein binding to Kinobeads
- Condition Summary: assay detail: Kinobeads competition in P. falciparum blood-stage lysate
Readout: IC50

- O=c1[nH]c2ccc(Cl)cc2c(NC2CN3CCC2CC3)c1-c1nc2ccccc2[nH]1 (stereo unspecified): > 20 µM

----------
- Target Or System: UniProt Q8IDV5
- Protocol Text: IC50 for competition of protein binding to Kinobeads
- Condition Summary: assay detail: Kinobeads competition in P. falciparum blood-stage lysate
pIC50: −log10 of the molar value.
Readout: pIC50

- O=c1[nH]c2ccc(Cl)cc2c(NC2CN3CCC2CC3)c1-c1nc2ccccc2[nH]1 (stereo unspecified) [CHIR-124]: < 4.70

----------
- Target Or System: UniProt C6KTA7
- Protocol Text: IC50 for competition of protein binding to Kinobeads
- Condition Summary: assay detail: Kinobeads competition in P. falciparum blood-stage lysate
pIC50: −log10 of the molar value.
Readout: pIC50

* O=c1[nH]c2ccc(Cl)cc2c(NC2CN3CCC2CC3)c1-c1nc2ccccc2[nH]1 (stereo unspecified) [CHIR-124] | < 4.70

----------
- Target Or System: UniProt Q8I3T9
- Protocol Text: IC50 for competition of protein binding to Kinobeads
- Condition Summary: assay detail: Kinobeads competition in P. falciparum blood-stage lysate
pIC50: −log10 of the molar value.
Readout: pIC50

* O=c1[nH]c2ccc(Cl)cc2c(NC2CN3CCC2CC3)c1-c1nc2ccccc2[nH]1 (stereo unspecified) [CHIR-124] | < 4.70

----------
- Target Or System: UniProt Q8IDB7
- Protocol Text: IC50 for competition of protein binding to Kinobeads
- Condition Summary: assay detail: Kinobeads competition in P. falciparum blood-stage lysate
Readout: IC50

• O=c1[nH]c2ccc(Cl)cc2c(NC2CN3CCC2CC3)c1-c1nc2ccccc2[nH]1 (stereo unspecified) [CHIR-124] = > 20 µM

----------
- Target Or System: UniProt Q8IBL5
- Protocol Text: IC50 for competition of protein binding to Kinobeads
- Condition Summary: assay detail: Kinobeads competition in P. falciparum blood-stage lysate
pIC50: −log10 of the molar value.
Readout: pIC50

- O=c1[nH]c2ccc(Cl)cc2c(NC2CN3CCC2CC3)c1-c1nc2ccccc2[nH]1 (stereo unspecified): < 4.70

----------
- Target Or System: UniProt Q8IKZ8
- Protocol Text: IC50 for competition of protein binding to Kinobeads
- Condition Summary: assay detail: Kinobeads competition in P. falciparum blood-stage lysate
Readout: IC50

- O=c1[nH]c2ccc(Cl)cc2c(NC2CN3CCC2CC3)c1-c1nc2ccccc2[nH]1 (stereo unspecified): > 20 µM

----------
- Target Or System: UniProt Q8IK91
- Protocol Text: IC50 for competition of protein binding to Kinobeads
- Condition Summary: assay detail: Kinobeads competition in P. falciparum blood-stage lysate
pIC50: −log10 of the molar value.
Readout: pIC50

- O=c1[nH]c2ccc(Cl)cc2c(NC2CN3CCC2CC3)c1-c1nc2ccccc2[nH]1 (stereo unspecified) [CHIR-124]: < 4.70
